assay notes: Drug level in bone of methicillin-susceptible Staphylococcus aureus infected human after 60 mins
Type: ADME, tissue-based, Bone element
condition set: read-out: Drug uptake
observation type: concentration at 1 h (ng/mL)
Give bare numbers, in ng/mL.

Tell me the measured concentration at 1 h of Cc1nnc(SCC2=C(C(=O)O)N3C(=O)[C@@H](NC(=O)Cn4cnnn4)[C@H]3SC2)s1 , please.
6900

----------
assay notes: Drug level in human serum at 1 g, iv after 4 hrs
Type: ADME, organism-based
condition set: read-out: Drug uptake
observation type: concentration at 4 h (ng/mL)
One number for each entry, in ng/mL.

Tell me the measured concentration at 4 h of Cc1nnc(SCC2=C(C(=O)O)N3C(=O)[C@@H](NC(=O)Cn4cnnn4)[C@H]3SC2)s1 [CEFAZOLIN] , please.
17000

Values were extracted from ChEMBL document CHEMBL1649557.
